Target: T1, human Trop-2-hFc (human, UniProt P09758 27-274)
T1 construct: also called huTrop-2; human Trop-2 human Fc fusion protein; not shown: human Fc
T1 sequence: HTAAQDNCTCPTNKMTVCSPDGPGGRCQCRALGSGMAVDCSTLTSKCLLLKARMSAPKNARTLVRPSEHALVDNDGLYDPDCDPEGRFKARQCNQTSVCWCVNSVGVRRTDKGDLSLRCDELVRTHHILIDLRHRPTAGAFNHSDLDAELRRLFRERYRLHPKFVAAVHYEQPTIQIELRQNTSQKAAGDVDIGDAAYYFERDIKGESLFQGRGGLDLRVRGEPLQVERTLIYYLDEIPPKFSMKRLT
Assay: SPR (Biacore T200), human Trop-2-hFc captured by anti-human Fc, Fab as analyte
parameterMeasured: Kd (nM)
Please respond with the number in nM and leave the unit unwritten.

binder	Kd, nM
h7E6_SVG Fab (Fab, V domains shown, also called DG (h7E6_SVG)) VH: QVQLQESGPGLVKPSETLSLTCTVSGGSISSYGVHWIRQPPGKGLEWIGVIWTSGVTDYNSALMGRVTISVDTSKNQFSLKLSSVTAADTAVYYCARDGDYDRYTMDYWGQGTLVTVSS VL: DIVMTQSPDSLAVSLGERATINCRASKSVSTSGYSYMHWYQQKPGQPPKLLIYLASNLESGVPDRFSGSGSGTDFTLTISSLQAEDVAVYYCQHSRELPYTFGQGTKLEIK	4.46
h7E6_SVGL recombinant Fab fragment (Fab, V domains shown, Recombinant Fab) VH: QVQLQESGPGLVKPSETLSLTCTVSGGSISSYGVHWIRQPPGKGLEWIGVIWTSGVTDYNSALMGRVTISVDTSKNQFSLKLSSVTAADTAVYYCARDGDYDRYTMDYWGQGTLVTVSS VL: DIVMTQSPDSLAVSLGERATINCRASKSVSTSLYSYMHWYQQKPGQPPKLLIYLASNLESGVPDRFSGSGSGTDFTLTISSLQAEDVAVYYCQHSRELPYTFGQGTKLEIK	0.25
h7E6-WT recombinant Fab fragment (Fab, V domains shown, Recombinant Fab) VH: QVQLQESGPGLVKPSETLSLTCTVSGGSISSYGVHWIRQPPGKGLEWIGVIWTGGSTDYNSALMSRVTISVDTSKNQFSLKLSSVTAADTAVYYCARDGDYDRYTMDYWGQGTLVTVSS VL: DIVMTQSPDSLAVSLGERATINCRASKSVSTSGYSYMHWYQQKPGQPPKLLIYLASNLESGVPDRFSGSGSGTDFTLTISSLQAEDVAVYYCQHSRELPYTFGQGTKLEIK	21.1

Now for the binder whose Kd we want.
[Q] What does the record list as Kd for h7E6_L recombinant Fab fragment (Fab, V domains shown, Recombinant Fab) VH: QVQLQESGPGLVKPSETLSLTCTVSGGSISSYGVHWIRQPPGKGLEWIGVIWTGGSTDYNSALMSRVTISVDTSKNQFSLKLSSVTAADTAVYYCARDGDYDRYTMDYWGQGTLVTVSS VL: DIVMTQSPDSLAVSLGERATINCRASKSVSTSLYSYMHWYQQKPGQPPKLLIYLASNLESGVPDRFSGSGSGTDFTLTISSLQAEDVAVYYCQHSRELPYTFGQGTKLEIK ?
[A] 1.15
